settings: in isopropanol, 318.15 K
Where a SMILES comes first, the peptide text is derived from it. [ ]: non-standard residue; d: D form. pGlu = O=C1CC[C@@H](C(=O)O)N1; Thz = O=C(O)[C@@H]1CSCN1
OBSERVABLE: solubility (mole fraction)

response.value for O=C1CC[C@@H](C(=O)N2CSC[C@H]2C(=O)O)N1 ([pGlu]-[Thz]-OH) (field: solubility (mole fraction)) = 0.0019

----------
details: in acetone, 313.15 K
Where a SMILES comes first, the peptide text is derived from it. [ ]: non-standard residue; d: D form. pGlu = O=C1CC[C@@H](C(=O)O)N1; Thz = O=C(O)[C@@H]1CSCN1
OBSERVABLE: solubility (mole fraction)
# output: bare number, no unit

Entry O=C1CC[C@@H](C(=O)N2CSC[C@H]2C(=O)O)N1 ([pGlu]-[Thz]-OH) ; solubility (mole fraction) = 0.000522

----------
settings: in benzyl alcohol, 308.15 K
Where a SMILES comes first, the peptide text is derived from it. [ ]: non-standard residue; d: D form. pGlu = O=C1CC[C@@H](C(=O)O)N1; Thz = O=C(O)[C@@H]1CSCN1
OBSERVABLE: solubility (mole fraction)
Keep it simple and answer with nothing but the number.

Measured solubility (mole fraction), O=C1CC[C@@H](C(=O)N2CSC[C@H]2C(=O)O)N1 ([pGlu]-[Thz]-OH) : 0.00661

----------
conditions: in benzyl alcohol, 293.15 K
Where a SMILES comes first, the peptide text is derived from it. [ ]: non-standard residue; d: D form. pGlu = O=C1CC[C@@H](C(=O)O)N1; Thz = O=C(O)[C@@H]1CSCN1
OBSERVABLE: solubility (mole fraction)
# answer = number (no unit)

solubility (mole fraction) measured on O=C1CC[C@@H](C(=O)N2CSC[C@H]2C(=O)O)N1 ([pGlu]-[Thz]-OH) = 0.00374

----------
details: in methanol, 323.15 K
Where a SMILES comes first, the peptide text is derived from it. [ ]: non-standard residue; d: D form. pGlu = O=C1CC[C@@H](C(=O)O)N1; Thz = O=C(O)[C@@H]1CSCN1
OBSERVABLE: solubility (mole fraction)

// solubility (mole fraction) lookup, molecule = O=C1CC[C@@H](C(=O)N2CSC[C@H]2C(=O)O)N1 ([pGlu]-[Thz]-OH) , result: 0.00528

----------
details: in benzyl alcohol, 278.15 K
Where a SMILES comes first, the peptide text is derived from it. [ ]: non-standard residue; d: D form. pGlu = O=C1CC[C@@H](C(=O)O)N1; Thz = O=C(O)[C@@H]1CSCN1
OBSERVABLE: solubility (mole fraction)
Provide a numeric answer; units are not to be included.

Please fill in: solubility (mole fraction) reported for O=C1CC[C@@H](C(=O)N2CSC[C@H]2C(=O)O)N1 ([pGlu]-[Thz]-OH) = 0.00226

----------
settings: in isopropanol, 298.15 K
Where a SMILES comes first, the peptide text is derived from it. [ ]: non-standard residue; d: D form. pGlu = O=C1CC[C@@H](C(=O)O)N1; Thz = O=C(O)[C@@H]1CSCN1
OBSERVABLE: solubility (mole fraction)
Reply: number alone, nothing else.

Record summary for O=C1CC[C@@H](C(=O)N2CSC[C@H]2C(=O)O)N1 ([pGlu]-[Thz]-OH) : reported solubility (mole fraction) = 0.000454

----------
conditions: in ethanol, 323.15 K
Where a SMILES comes first, the peptide text is derived from it. [ ]: non-standard residue; d: D form. pGlu = O=C1CC[C@@H](C(=O)O)N1; Thz = O=C(O)[C@@H]1CSCN1
OBSERVABLE: solubility (mole fraction)
Hey, just send me the number, nothing else.

solubility (mole fraction) measured on O=C1CC[C@@H](C(=O)N2CSC[C@H]2C(=O)O)N1 ([pGlu]-[Thz]-OH) = 0.00292

----------
conditions: in DMF, 323.15 K
Where a SMILES comes first, the peptide text is derived from it. [ ]: non-standard residue; d: D form. pGlu = O=C1CC[C@@H](C(=O)O)N1; Thz = O=C(O)[C@@H]1CSCN1
OBSERVABLE: solubility (mole fraction)
Number only, no unit.

Sample O=C1CC[C@@H](C(=O)N2CSC[C@H]2C(=O)O)N1 ([pGlu]-[Thz]-OH) ; solubility (mole fraction) observed: 0.0291

----------
conditions: in n-butanol, 323.15 K
Where a SMILES comes first, the peptide text is derived from it. [ ]: non-standard residue; d: D form. pGlu = O=C1CC[C@@H](C(=O)O)N1; Thz = O=C(O)[C@@H]1CSCN1
OBSERVABLE: solubility (mole fraction)
# answer = number (no unit)

For record O=C1CC[C@@H](C(=O)N2CSC[C@H]2C(=O)O)N1 ([pGlu]-[Thz]-OH) the listed solubility (mole fraction) is 0.00197

----------
conditions: in isopropanol, 293.15 K
Where a SMILES comes first, the peptide text is derived from it. [ ]: non-standard residue; d: D form. pGlu = O=C1CC[C@@H](C(=O)O)N1; Thz = O=C(O)[C@@H]1CSCN1
OBSERVABLE: solubility (mole fraction)
Lab note: jot down the number only; don't add units.

Query O=C1CC[C@@H](C(=O)N2CSC[C@H]2C(=O)O)N1 ([pGlu]-[Thz]-OH) yields solubility (mole fraction) of 0.000307

----------
conditions: in ethanol, 303.15 K
Where a SMILES comes first, the peptide text is derived from it. [ ]: non-standard residue; d: D form. pGlu = O=C1CC[C@@H](C(=O)O)N1; Thz = O=C(O)[C@@H]1CSCN1
OBSERVABLE: solubility (mole fraction)
Respond numerically, and do not add a unit to the figure.

The compound listed as O=C1CC[C@@H](C(=O)N2CSC[C@H]2C(=O)O)N1 ([pGlu]-[Thz]-OH) has a reported solubility (mole fraction) of 0.000679

----------
conditions: in water, 278.15 K
Where a SMILES comes first, the peptide text is derived from it. [ ]: non-standard residue; d: D form. pGlu = O=C1CC[C@@H](C(=O)O)N1; Thz = O=C(O)[C@@H]1CSCN1
OBSERVABLE: solubility (mole fraction)

Recorded result, O=C1CC[C@@H](C(=O)N2CSC[C@H]2C(=O)O)N1 ([pGlu]-[Thz]-OH) , solubility (mole fraction): 0.00163

----------
conditions: in n-butanol, 318.15 K
Where a SMILES comes first, the peptide text is derived from it. [ ]: non-standard residue; d: D form. pGlu = O=C1CC[C@@H](C(=O)O)N1; Thz = O=C(O)[C@@H]1CSCN1
OBSERVABLE: solubility (mole fraction)
Number only, no unit.

Noted for O=C1CC[C@@H](C(=O)N2CSC[C@H]2C(=O)O)N1 ([pGlu]-[Thz]-OH) : its solubility (mole fraction) reads 0.00151

----------
details: in n-butanol, 293.15 K
Where a SMILES comes first, the peptide text is derived from it. [ ]: non-standard residue; d: D form. pGlu = O=C1CC[C@@H](C(=O)O)N1; Thz = O=C(O)[C@@H]1CSCN1
OBSERVABLE: solubility (mole fraction)
Respond numerically, and do not add a unit to the figure.

Entry under test: O=C1CC[C@@H](C(=O)N2CSC[C@H]2C(=O)O)N1 ([pGlu]-[Thz]-OH) . Its solubility (mole fraction) was 0.000439

----------
conditions: in n-butanol, 303.15 K
Where a SMILES comes first, the peptide text is derived from it. [ ]: non-standard residue; d: D form. pGlu = O=C1CC[C@@H](C(=O)O)N1; Thz = O=C(O)[C@@H]1CSCN1
OBSERVABLE: solubility (mole fraction)

O=C1CC[C@@H](C(=O)N2CSC[C@H]2C(=O)O)N1 ([pGlu]-[Thz]-OH) yielded solubility (mole fraction) of 0.00072

----------
details: in isopropanol, 323.15 K
Where a SMILES comes first, the peptide text is derived from it. [ ]: non-standard residue; d: D form. pGlu = O=C1CC[C@@H](C(=O)O)N1; Thz = O=C(O)[C@@H]1CSCN1
OBSERVABLE: solubility (mole fraction)
In your answer, state the number alone without any accompanying words.

According to the records, this compound O=C1CC[C@@H](C(=O)N2CSC[C@H]2C(=O)O)N1 ([pGlu]-[Thz]-OH) displays solubility (mole fraction) of 0.00265

----------
conditions: in n-butanol, 313.15 K
Where a SMILES comes first, the peptide text is derived from it. [ ]: non-standard residue; d: D form. pGlu = O=C1CC[C@@H](C(=O)O)N1; Thz = O=C(O)[C@@H]1CSCN1
OBSERVABLE: solubility (mole fraction)
Would you mind answering with just the numeric figure?

Form: compound = O=C1CC[C@@H](C(=O)N2CSC[C@H]2C(=O)O)N1 ([pGlu]-[Thz]-OH) ; solubility (mole fraction) = 0.0012

Entry source: BigSolDB 2.1
